B1: tRNA (parent)
chain: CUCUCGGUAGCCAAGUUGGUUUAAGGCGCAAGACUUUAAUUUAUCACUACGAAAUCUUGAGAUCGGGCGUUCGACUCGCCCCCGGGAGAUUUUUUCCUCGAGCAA

Variants of: B1
test details: nonsense suppression (GFP-seq) (ratio to wild type); higher = more function; SUP4oc tRNA, yeast GFP reporter sort-seq
Variants at the floor of the assay were thinned out.
Quick list: nonsense suppression per entry.

Here's what some known entries look like.
# change, nonsense suppression
measured = [
    ("A33C C56A G78A", "≤ 0.026"),
    ("C3G G59A G78U A87U", "≤ 0.026"),
    ("C1U U17C C81G", "≤ 0.026"),
    ("G26C C81U", "≤ 0.026"),
    ("U4G U8A", "≤ 0.026"),
    ("G26A A31C", "≤ 0.026"),
]

Memo: G10U A54C G86C , reported nonsense suppression: ≤ 0.026

Memo: G15C C27G A31C , reported nonsense suppression: ≤ 0.026

Memo: C12U C27U G61C , reported nonsense suppression: ≤ 0.026

Memo: C27A A30C A60G C77G C81A , reported nonsense suppression: ≤ 0.026

Memo: G15A G65A , reported nonsense suppression: ≤ 0.026
